- assayed system: Recombinant human PAD2 (residues 1-665) (Homo sapiens, UniProt Q9Y2J8)
- Construct: Recombinant human PAD2 (residues 1-665); 6His-FLAG (N); made in house; host or cells: baculovirus-infected Sf9 insect cells
- Sequence (Q9Y2J8 whole entry, the tested form may be a part): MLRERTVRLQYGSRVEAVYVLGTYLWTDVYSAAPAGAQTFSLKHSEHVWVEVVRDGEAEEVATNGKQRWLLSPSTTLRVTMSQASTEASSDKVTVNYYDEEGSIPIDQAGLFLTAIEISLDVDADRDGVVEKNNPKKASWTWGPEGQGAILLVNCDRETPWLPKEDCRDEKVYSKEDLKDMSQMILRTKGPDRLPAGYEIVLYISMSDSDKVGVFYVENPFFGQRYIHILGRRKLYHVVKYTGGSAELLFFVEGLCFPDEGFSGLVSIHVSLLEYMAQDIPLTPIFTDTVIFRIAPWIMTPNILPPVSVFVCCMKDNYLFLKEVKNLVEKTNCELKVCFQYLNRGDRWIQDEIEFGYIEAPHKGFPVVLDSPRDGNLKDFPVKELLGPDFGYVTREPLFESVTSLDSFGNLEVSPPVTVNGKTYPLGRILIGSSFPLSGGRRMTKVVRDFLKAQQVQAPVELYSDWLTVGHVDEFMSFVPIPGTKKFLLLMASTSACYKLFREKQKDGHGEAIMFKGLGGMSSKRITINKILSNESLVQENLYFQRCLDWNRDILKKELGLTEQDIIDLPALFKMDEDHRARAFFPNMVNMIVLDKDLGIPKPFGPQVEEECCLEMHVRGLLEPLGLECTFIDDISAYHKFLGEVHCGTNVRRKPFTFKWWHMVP
- protocol: PAD2 enzyme assay (NH3 release, BAEE substrate, fluorescence)
- Type: biochemical
- condition details: PAD2 enzyme assay above or similar assays; read-out: mean pIC50 (converted)
Where a name gives a salt, the structure may show the parent alone.
measured attribute: IC50

Would you please look over these solved cases?
{"molecule": "Cn1c(-c2cc3cccnc3n2CC2CC2)nc2cc(C(=O)N3CC[C@@H](O)[C@@H](N)C3)ccc21 [Example 13, hydrochloride]", "IC50": "63.1 to 79.4 µM"}
{"molecule": "COc1cc(C(=O)N2CCC[C@@H](N)C2)cc2nc(-c3cc4cccnc4n3CC(C)C)n(C)c12 [Example 22, hydrochloride]", "IC50": "63.1 to 79.4 µM"}
{"molecule": "COc1cc(C(=O)N2CCC[C@@H](N)C2)cc2nc(-c3cc4cccnc4n3CC(C)(C)C)n(C)c12", "IC50": "63.1 to 79.4 µM"}

# input Sample CCn1c(-c2nc3cc(C(=O)N4CCC[C@@H](N)C4)ccc3n2C)cc2cccnc21 [Example 2B, hydrochloride] — what was its IC50?
# output 63.1 to 79.4 µM

# input What IC50 value was documented for this molecule, COc1cc(C(=O)N2CC[C@@H](O)[C@@H](N)C2)cc2nc(-c3cc4cccnc4n3CC3CC3)n(C)c12 [Example 14, hydrochloride] ?
# output > 79.4 µM

# input So what's the measured IC50 for this one? CCn1c(-c2nc3cc(C(=O)N4CCC[C@H](N)C4)cc(OC)c3n2C)cc2cccnc21 [Example 19, hydrochloride]
# output 63.1 to 79.4 µM
